System: H358 cells
Assay: Cell viability assay (CELLTITER-GLO), H358 cells
Assay type: cell-based
Conditions: Table 4; 3 days
Test Readout: Inhibition of H358 cells, IC50 (class)

Some entries whose results are on file:
[[record]]
compound = "C=C(Cl)C(=O)N1CCN(c2ncnc3c(F)c(-c4c(F)cccc4OCCc4ccc(CCN5CCC(c6cc(F)cc7c6CN(C6CCC(=O)NC6=O)C7=O)CC5)cc4)c(Cl)cc23)CC1 (centres unmarked)"
test_readout = "Inhibition of H358 cells, IC50 (class)"
observed_measurement = "B′"

[[record]]
compound = "CCC(=O)N1CCN(c2ncnc3c(F)c(-c4c(F)cccc4OCCCNCc4ccc(COc5cccc6c5CN([C@H]5CCC(=O)NC5=O)C6=O)cc4)c(Cl)cc23)CC1"
test_readout = "Inhibition of H358 cells, IC50 (class)"
observed_measurement = "C′"

[[record]]
compound = "CCC(=O)N1CCN(c2ncnc3c(Cl)c(-c4c(F)cccc4OCCCCCCCCN4CCC(c5cc(F)cc6c5CN(C5CCC(=O)NC5=O)C6=O)CC4)c(F)cc23)CC1 (centres unmarked) [Compound 20]"
test_readout = "Inhibition of H358 cells, IC50 (class)"
observed_measurement = "B′"

[[record]]
compound = "C=C(Cl)C(=O)N1CCN(c2ncnc3c(F)c(-c4c(F)cccc4OCCC4CCC(CCN5CCC(c6cc(F)cc7c6CN(C6CCC(=O)NC6=O)C7=O)CC5)C4)c(Cl)cc23)CC1 (centres unmarked)"
test_readout = "Inhibition of H358 cells, IC50 (class)"
observed_measurement = "B′"

[[record]]
compound = "C=CC(=O)N1CCN(c2ncnc3c(F)c(-c4c(F)cccc4OCCCCCCCN4CCC(c5cc(F)cc6c5CN(C5CCC(=O)NC5=O)C6=O)CC4)c(Cl)cc23)CC1 (centres unmarked)"
test_readout = "Inhibition of H358 cells, IC50 (class)"
observed_measurement = "A′"

[[record]]
compound = "C=C(Cl)C(=O)N1CCN(c2ncnc3c(F)c(-c4c(F)cccc4OCCCCCCCN4CCC(c5cc(F)cc6c5CN(C5CCC(=O)NC5=O)C6=O)CC4)c(Cl)cc23)CC1 (centres unmarked)"
test_readout = "Inhibition of H358 cells, IC50 (class)"
observed_measurement = "A′"

[[record]]
compound = "CCC(=O)N1CCN(c2ncnc3c(F)c(-c4c(F)cccc4OCCCCCN4CCC(c5cc(F)cc6c5CN(C5CCC(=O)NC5=O)C6=O)CC4)c(Cl)cc23)CC1 (centres unmarked)"
test_readout = "Inhibition of H358 cells, IC50 (class)"
observed_measurement = "D′"

[[record]]
compound = "CCC(=O)N1CCN(c2ncnc3c(F)c(-c4c(F)cccc4OCCOCc4ccc(COCCN5CCC(c6cc(F)cc7c6CN(C6CCC(=O)NC6=O)C7=O)CC5)cc4)c(Cl)cc23)CC1 (centres unmarked)"
test_readout = "Inhibition of H358 cells, IC50 (class)"
observed_measurement = "B′"

[[record]]
compound = "C=CC(=O)N1CCN(c2nc(=O)n(-c3ccccc3C(C)C)c3nc(-c4c(F)cccc4OCCCCCCCN4CCC(c5cc(F)cc6c5CN(C5CCC(=O)NC5=O)C6=O)CC4)c(F)cc23)[C@@H](C)C1 (some centres unmarked)"
test_readout = "Inhibition of H358 cells, IC50 (class)"
observed_measurement = "A′"

[[record]]
compound = "C=CC(=O)N1CC(N2Cc3ccc(-c4cc(O)cc5ccccc45)cc3N(CCOCCOCCNc3cccc4c3C(=O)N(C3CCC(=O)NC3=O)C4=O)C2=O)C1 (centres unmarked)"
test_readout = "Inhibition of H358 cells, IC50 (class)"
observed_measurement = "C′"


### Prompt Look up Inhibition of H358 cells, IC50 (class) of CCC(=O)N1CCN(c2ncnc3c(F)c(-c4c(F)cccc4OCCC4CCC(CCN5CCC(c6cc(F)cc7c6CN(C6CCC(=O)NC6=O)C7=O)CC5)CC4)c(Cl)cc23)CC1 (centres unmarked) and report it.
### Response B′

### Prompt Look up Inhibition of H358 cells, IC50 (class) of C=C(Cl)C(=O)N1CCN(c2nc(=O)n(-c3ccc(CCCCCCCN4CCC(c5cc(F)cc6c5CN(C5CCC(=O)NC5=O)C6=O)CC4)cc3C(C)C)c3nc(-c4c(O)cccc4F)c(F)cc23)[C@@H](C)C1 (some centres unmarked) and report it.
### Response B′

### Prompt Look up Inhibition of H358 cells, IC50 (class) of C=CC(=O)N1CCN(c2ncnc3c(F)c(-c4c(F)cccc4OCCCCCCCN4CCC(c5scc6c5CN(C5CCC(=O)NC5=O)C6=O)CC4)c(Cl)cc23)CC1 (centres unmarked) and report it.
### Response A′

### Prompt Look up Inhibition of H358 cells, IC50 (class) of CCC(=O)N1CCN(c2nc(=O)n(-c3ccccc3C(C)C)c3nc(-c4c(F)cccc4OCCCCCCCN4CCC(c5cc(F)cc6c5CN(C5CCC(=O)NC5=O)C6=O)CC4)c(F)cc23)[C@@H](C)C1 (some centres unmarked) and report it.
### Response B′

### Prompt Look up Inhibition of H358 cells, IC50 (class) of CCC(=O)N1CC(N2Cc3ccc(-c4cc(O)cc5ccccc45)cc3N(CCNCCCCCCCN3CCC(c4cc(F)cc5c4CN(C4CCC(=O)NC4=O)C5=O)CC3)C2=O)C1 (centres unmarked) and report it.
### Response D′

### Prompt Look up Inhibition of H358 cells, IC50 (class) of C=C(Cl)C(=O)N1CCN(c2ncnc3c(F)c(-c4c(F)cccc4OCCC4CCC(CCN5CCC(c6cc(F)cc7c6CN(C6CCC(=O)NC6=O)C7=O)CC5)CC4)c(Cl)cc23)C[C@H]1CC#N (some centres unmarked) and report it.
### Response A′

### Prompt Look up Inhibition of H358 cells, IC50 (class) of C=C(Cl)C(=O)N1CCN(c2ncnc3c(F)c(-c4c(F)cccc4OCCCCCCCN4CCC(c5cc(F)cc6c5CN(C5CCC(=O)NC5=O)C6=O)CC4)c(Cl)cc23)C[C@H]1CC#N (some centres unmarked) and report it.
### Response A′
